Target: T1, human CD33 Fc fusion protein (human, UniProt P20138 18-259)
T1 construct: also called hCD33-Fc; human CD33/Fc chimera (R&D Systems)
T1 sequence (P20138 18-259 limits assumed): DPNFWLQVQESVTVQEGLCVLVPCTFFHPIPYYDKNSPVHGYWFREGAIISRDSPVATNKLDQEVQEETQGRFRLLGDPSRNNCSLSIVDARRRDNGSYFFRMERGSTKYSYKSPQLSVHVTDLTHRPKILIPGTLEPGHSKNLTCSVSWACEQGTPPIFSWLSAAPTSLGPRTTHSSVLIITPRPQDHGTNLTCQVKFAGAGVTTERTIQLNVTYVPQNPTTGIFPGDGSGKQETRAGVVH
Test: RBC adhesion to plate-bound CD33-Fc; antibody 1.0 ug/ml;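 further: red blood cells adhering to plate-coated CD33-Fc after 1 h antibody pretreatment, then 1 h at room temperature, bound cells read as peroxidase activity after lysis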
Quick rule for you: Percent RBC Binding to CD33 under 10% gets Y, anything else gets N.

Some solved entries appear below for comparison.
>  <BINDER>
C-35 (antibody, V domains shown, human IgG1) VH: QLQLQESGPGLVKPSETLSLTCTVSGGSISSSSYAWGWIRQPPGKGLEWIGNIYYSGSTYYNPSLKSRVTISVDTSKNQFSLKLSSVTAADTAVYYCARAGYRSPSGFDYWGQGTLVTVSS VL: DIQMTQSPSSVSASVGDRVTITCRASQGISSWLAWYQQKPGKAPKLLIYAASNLQSGVPSRFSGSGSGTDFTLTISSLQPEDFATYYCQQGNAHPTFGGGTKVEIK

>  <GROUP_LABEL>
Y

$$$$
>  <BINDER>
C-75 (antibody, V domains shown, human IgG1) VH: EVQLLESGGGLVQPGGSLRLSCAASGFTFSSYAMSWVRQAPGKGLEWVSAISASGGSTYYADSVKGRFTISRDNSKNTLYLQMNSLRAEDTAVYYCARLHMTGTASSGMDVWGQGTTVTVSS VL: DIVMTQSPDSLAVSLGERATINCKSSQSVLYSSNNKNYLAWYQQKPGQAPRLLIYGASSRATGIPDRFSGSGSGTDFTLTISRLEPEDFAVYYCQQDYSSPLTFGGGTKVEIK

>  <GROUP_LABEL>
N

$$$$

Lookup: Input C-24 (antibody, V domains shown, human IgG1) VH: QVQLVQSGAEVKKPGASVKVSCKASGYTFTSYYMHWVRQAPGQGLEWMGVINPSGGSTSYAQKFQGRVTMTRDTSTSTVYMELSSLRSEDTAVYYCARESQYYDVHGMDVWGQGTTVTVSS VL: DIQMTQSPSSLSASVGDRVTITCRASQSISSYLNWYQQKPGKAPKLLIYAASSLQSGVPSRFSGSGSGTDFTLTISSLQPEDFATYYCQQSVTPPLTFGGGTKVEIK ; condition: Percent RBC Binding to CD33 strictly below 10%. Does it hold?
Found: Y
